targetEntity: T1, human GLP-1 receptor (human, UniProt P43220 24-463)
T1 construct: whole, on cells; also called the receptor; hGLP-1
experimentalProtocol: SPA, displacement of 125I-GLP-1(7-36)NH2, BHK membranes, 0.001% HSA
*1 amine or outer side, *2 acyl side, *3 side chain or, on linkers, in order; H or OH if unused. Where no end group is shown, it is not given here. Side-chain parts run from the residue outwards. [ ]: non-standard residue; d: D form. The star is where a group is joined. Dodecanoyl(12-OPh(4-COOH)) = O=C(O)c1ccc(OCCCCCCCCCCCC(=O)*)cc1; Undecanoyl(11-OPh(4-COOH)) = O=C(O)c1ccc(OCCCCCCCCCCC(=O)*)cc1; Decanoyl(10-(4-HOOC-PhO)) = O=C(O)c1ccc(OCCCCCCCCCC(=O)*)cc1; γGlu = O=C(O)[C@H](CCC(=O)[*:2])N[*:1]; εLys = N[C@@H](CCCCN[*:1])C(=O)[*:2]; AEEA = NCCOCCOCC(=O)O; Aib = CC(C)(N)C(=O)O
measuredParameter: IC50 (nM)
Numbers only, in nM.

- binder: "HXEGTFTSDVSSYLEGQAAKEFIAHLVQGRK (Aib at 8; eps-amino of Lys26 and Lys37 each acylated with 10-(4-carboxyphenoxy)decanoyl via the gGlu-2xOEG linker (as Example 2, only the linker differs)) [Comparative compound of Example 2a: Compound of Example 17, Chem. 36, in WO 2011/080103]"
  IC50, nM: 44.5
- binder: "HXEGTFTSDVSSYLEGQAAKEFIAWLVRGRK (Aib at 8; eps-amino of Lys26 and Lys37 each acylated with 12-(4-carboxyphenoxy)dodecanoyl-gGlu-Ser-Ser-Gly-Ser-Ser-Gly)"
  IC50, nM: 0.19
- binder: "H[Aib]EGTFTSDVSK([εLys-Gly-Ser-Ser-Gly-Ser-Ser-Gly-Ser-Ser-Gly-Ser-Ser-Gly-Ser-Ser-Gly-Ser-Ser-γGlu-Undecanoyl(11-OPh(4-COOH))])YLEGQAAK([εLys-Gly-Ser-Ser-Gly-Ser-Ser-Gly-Ser-Ser-Gly-Ser-Ser-Gly-Ser-Ser-Gly-Ser-Ser-γGlu-Undecanoyl(11-OPh(4-COOH))])EFIAWLVQGRG"
  IC50, nM: 4.87
- binder: "H[Aib]EGTFTSDVSK([AEEA-AEEA-γGlu-Decanoyl(10-(4-HOOC-PhO))])YLEEQAAK([AEEA-AEEA-γGlu-Decanoyl(10-(4-HOOC-PhO))])EFIAWLVQGRG [Comparative compound of Example 7a: Compound of Example 2, Chem. 21, in WO 2012/062803]"
  IC50, nM: 7.03
- binder: "HXEGTFTSDVSSYLEGQAAKEFIAWLVHGRK (Aib at 8; eps-amino of Lys26 and Lys37 each acylated with 13-carboxytridecanoyl-gGlu-Ser-Ser-Gly-Ser-Ser-Gly)"
  IC50, nM: 4.61

# batch: return IC50 for each of the 7 binders below
1. HXEGTFTSDVSSYLEGQAAKEFIAHLVQGRK (Aib at 8; eps-amino of Lys26 and Lys37 each acylated with 10-(4-carboxyphenoxy)decanoyl-gGlu-Ser-Ser-Gly-Ser-Ser-Gly)
2. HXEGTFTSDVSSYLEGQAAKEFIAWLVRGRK (Aib at 8; eps-amino of Lys26 and Lys37 each acylated with 12-(4-carboxyphenoxy)dodecanoyl-gGlu-Ser-Gly-Ser-eps-Lys)
3. XXEGTFTSDVSSYLEGQAAKEFIAWLVRGRK (Imp (imidazopropionyl, des-amino histidine) at 7; Aib at 8; eps-amino of Lys26 and Lys37 each acylated with 12-(4-carboxyphenoxy)dodecanoyl-gGlu-Ser-Gly-Ser-eps-Lys)
4. H[Aib]EGTFTSDVSK([AEEA-AEEA-γGlu-Decanoyl(10-(4-HOOC-PhO))])YLEGQAAK([AEEA-AEEA-γGlu-Decanoyl(10-(4-HOOC-PhO))])EFIAWLVQGRG [Comparative compound of Example 9a: Compound of Example 92, Chem. 111, in WO 2012/062803]
5. H[Aib]EGTFTSDVSK([Gly-Ser-Ser-Gly-Ser-Ser-γGlu-Dodecanoyl(12-OPh(4-COOH))])YLEGQAAK([Gly-Ser-Ser-Gly-Ser-Ser-γGlu-Dodecanoyl(12-OPh(4-COOH))])EFIAWLVQGRG
6. H[Aib]EGTFTSDVSK([Gly-Ser-Ser-Gly-Ser-Ser-γGlu-Undecanoyl(11-OPh(4-COOH))])YLEGQAAK([Gly-Ser-Ser-Gly-Ser-Ser-γGlu-Undecanoyl(11-OPh(4-COOH))])EFIAWLVQGRG
7. HXEGTFTSDVSSYLEGQAAKEFIAHLVQGRGK (Aib at 8; eps-amino of Lys26 and of the added C-terminal Lys (position 38) each acylated with 10-(4-carboxyphenoxy)decanoyl-gGlu-Ser-Ser-Gly-Ser-Ser-Gly)

1. 8.99
2. 0.27
3. 0.18
4. 8.09
5. 0.84
6. 0.37
7. 12.8

Origin of values: patent US20170145069A1
